# tested target: Oxysterols receptor LXR-beta (Homo sapiens)
# Sequence (P55055 whole entry, the tested form may be a part): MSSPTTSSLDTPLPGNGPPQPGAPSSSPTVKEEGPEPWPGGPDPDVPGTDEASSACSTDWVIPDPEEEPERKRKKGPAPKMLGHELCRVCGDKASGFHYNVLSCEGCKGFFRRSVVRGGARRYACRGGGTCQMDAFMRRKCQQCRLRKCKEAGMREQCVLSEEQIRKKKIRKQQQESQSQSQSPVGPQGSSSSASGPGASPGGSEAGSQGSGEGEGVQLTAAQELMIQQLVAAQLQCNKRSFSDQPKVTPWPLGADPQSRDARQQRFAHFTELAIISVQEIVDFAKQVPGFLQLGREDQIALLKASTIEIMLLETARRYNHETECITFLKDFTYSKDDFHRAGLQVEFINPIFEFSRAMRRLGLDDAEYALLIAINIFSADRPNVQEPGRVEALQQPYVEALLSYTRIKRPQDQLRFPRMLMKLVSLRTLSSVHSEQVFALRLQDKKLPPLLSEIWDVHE
# test: Binding affinity to recombinant human LXRbeta-LBD expressed in Escherichia coli BL21 (DE3) assessed as inhibitory constant incubated for 30 mins by fluorescence polarization binding assay
pKi: −log10 of the molar value.
value type: pKi

Example entries begin here.
| molecule | numeric value |
| --- | --- |
| CCOC(=O)c1ccc(CN(Cc2ccc(-c3cccc(S(C)(=O)=O)c3)cc2)S(=O)(=O)c2c(C)cc(C)cc2C)o1 | 6.45 |
| Oc1ccc(Sc2ccc(O)cc2)cc1 | 4.17 |
| COc1ccc(OC)c(Cl)c1 | 3.32 |

P: COC(=O)c1ccc2cc[nH]c2c1
Q: N#CC[C@H](C1CCCC1)n1cc(-c2ncnc3[nH]ccc23)cn1
R: Fc1ccc(-c2c3cccc(C(F)(F)F)c3nn2Cc2ccc(F)cc2Cl)cc1
Put the items in order so that reported pKi rises from first to last. The labels, placed in the requested order, form the answer.
P, Q, R
